B1: VPS39 (parent)
chain: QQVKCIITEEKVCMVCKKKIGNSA

# Variants of: B1
# Protocol notes: protein stability index of a GFP-peptide fusion (GPS, HEK-293T) (PSI 1-6); higher = more stable;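 note: lentivirally expressed fusions sorted by FACS into six bins by GFP to DsRed ratio, PSI derived from sequencing read proportions per bin multiplied by bin number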
# Condition context: c terminus: a fixed tail appended
Test readout: protein stability index
Number only, please.

QUERY: Form field: reported protein stability index of QQVKCIITEEKVCMVCKYKIGNSA [K18Y]
RESULT: 1.41

QUERY: Request the reported protein stability index associated with QQVKCIITEEKVCMVCSKKIGNSA [K17S]
RESULT: 2.82

QUERY: Name the recorded protein stability index for QQVKCIITEEKVCMVCKKKIGNQA [S23Q] .
RESULT: 2.5

QUERY: Param item = QQVKCIITEEKVCYVCKKKIGNSA [M14Y] ; retrieve measured protein stability index.
RESULT: 2.57

QUERY: Consider the variant QQVKCIITEELVCMVCKKKIGNSA [K11L] and give its measured protein stability index.
RESULT: 1.87

QUERY: Item QQVKCIITEEKVCMVCKKEIGNSA [K19E] has what recorded protein stability index?
RESULT: 2.89

QUERY: Quick one: protein stability index of QQVKCIITEEKVCMVQKKKIGNSA [C16Q] ?
RESULT: 3.93

QUERY: Could you share which protein stability index value was measured for QQVKCIITEEKVCMVCKKKIGNSL [A24L] ?
RESULT: 1.74

QUERY: Tell me the measured protein stability index of QQVLCIITEEKVCMVCKKKIGNSA [K4L] , please.
RESULT: 1.77

QUERY: Look up protein stability index for this variant: QQVKCIITEEKHCMVCKKKIGNSA [V12H]
RESULT: 2.64

QUERY: So what's the measured protein stability index for this one? QRVKCIITEEKVCMVCKKKIGNSA [Q2R]
RESULT: 2.59

QUERY: // query protein stability index value for entry QQVKCIITEEFVCMVCKKKIGNSA [K11F]
RESULT: 1.75

QUERY: Consider the variant shown here: QQVKCIITEEPVCMVCKKKIGNSA [K11P] What is its recorded protein stability index?
RESULT: 3.15

QUERY: Requested read-out: protein stability index. Entry: QQVKCIIKEEKVCMVCKKKIGNSA [T8K]
RESULT: 2.47

QUERY: Name the recorded protein stability index for QQVKCIITLEKVCMVCKKKIGNSA [E9L] .
RESULT: 1.73

QUERY: Find the recorded protein stability index belonging to QQVKCIITEEKVCMVCKKKIHNSA [G21H] and report it.
RESULT: 2.93

QUERY: Can you share its protein stability index? I mean this variant: QQVKCITTEEKVCMVCKKKIGNSA [I7T]
RESULT: 2.69

QUERY: Find the recorded protein stability index belonging to AQVKCIITEEKVCMVCKKKIGNSA [Q1A] and report it.
RESULT: 1.95

QUERY: Look at this variant and give its reported protein stability index. QQVKCIITEEKVCKVCKKKIGNSA [M14K]
RESULT: 3.44

QUERY: Returns the measured protein stability index for the input variant. Input: QQVKKIITEEKVCMVCKKKIGNSA [C5K]
RESULT: 3.61

QUERY: Bench note: what protein stability index did QQVKCIITSEKVCMVCKKKIGNSA [E9S] show?
RESULT: 3.77

QUERY: Need protein stability index of QQVKCIITEEKVCMVCKKKIGHSA [N22H] , thanks.
RESULT: 2.25

QUERY: # input variant: QQVKCIITEEKVCMVCKCKIGNSA [K18C] ; wanted: its protein stability index
RESULT: 2.02

QUERY: Recorded protein stability index for QQVKCIITEEKVCMVCKKKKGNSA [I20K] , please?
RESULT: 3.58

QUERY: So what does the record say about protein stability index for QQDKCIITEEKVCMVCKKKIGNSA [V3D] ?
RESULT: 3.92

QUERY: # lookup: protein stability index of QQVKCIITWEKVCMVCKKKIGNSA [E9W]
RESULT: 1.35

QUERY: Request the reported protein stability index associated with QQVKCIITEEKVCMYCKKKIGNSA [V15Y]
RESULT: 2.17

QUERY: # get_value(readout='protein stability index', item= QQVKCIITEEKVCMVCKKMIGNSA [K19M] )
RESULT: 1.67

QUERY: Report protein stability index for QQVKCIRTEEKVCMVCKKKIGNSA [I7R] please.
RESULT: 2.86

QUERY: protein stability index lookup needed for QQVKCHITEEKVCMVCKKKIGNSA [I6H] , thanks.
RESULT: 3.47

QUERY: For the variant shown here, QQPKCIITEEKVCMVCKKKIGNSA [V3P] , give the reported protein stability index.
RESULT: 3.49

QUERY: Entry under review: QQVKCIITEEKVCMVCKKKIGNSD [A24D] . Reported protein stability index?
RESULT: 3.35

QUERY: // lookup protein stability index for QQVKCIITEEAVCMVCKKKIGNSA [K11A]
RESULT: 3.64

QUERY: // lookup protein stability index for QQVKCIITEEYVCMVCKKKIGNSA [K11Y]
RESULT: 1.77
